# protocolDescription: yeast display, Sf9 membrane polyspecificity reagent, FACS + sequencing; frameworks hold sequencing errors
measureName: polyreactivity (PSR sort gate)

Worked cases, answers included:
| residueString | polyreactivity (PSR sort gate) |
| --- | --- |
| QVQLVESGGRLVQAGGSLRLSCADSGRTFYLYAMGWYRQAPGKEREFVADITFSGASTDYAASVKGRFTISRDNAKNTVYLQMNSLKPEDTAVYYCNADIAHVCWWSYPTDDYWGQGTQVTVSS | high polyreactivity |
| QVQLVESGGGLVQAGGSLRLSCAASGSTFPVNTMGWYRQAPGKERELVAAITKNGANTYYADSVKGRFTISRDNAKNTVYLQMNSLKPEDTADYYCAARYVYGKSYSRWLVELDYWGQGTQVTVSS | low polyreactivity |
| QVQLVESGGGLVQAGGSLRLSCAASGSTFAYYAMGWYRQAPGKERELVASISWRGGSTYYADSVKGRFTNSRDNAKNTVYLQMNSLKPEDTAVYYCAAGRFYIWSRSQEYDYWGQGTQVTVSS | low polyreactivity |
| QVQLVESRGALVQAGGSLRLSCAASGLILWVNAMGWNRQAPGKERELVAAISWSSGSTYYADSVKGRFTISRDNAKNTVYLQMNSLKPEASAVYYCAASVRRTGSICHYYYSGQGTQVTVSS | high polyreactivity |

State the recorded polyreactivity (PSR sort gate) for this entry: QVQLVESGGGLVQAGGSLRLSCAASGIIFRANAMGWYRQAPGKERELVAAISGRGSSTTYADSVKGRFTISRDNAKNTVYLQMNSLKPEDTAVYYCAADTWYPGYYAYDYWGQGTQVTVSS
high polyreactivity

====

# protocolDescription: yeast display, Sf9 membrane polyspecificity reagent, FACS + sequencing; frameworks hold sequencing errors
measureName: polyreactivity (PSR sort gate)

| residueString | polyreactivity (PSR sort gate) |
| --- | --- |
| QVQLVESGGGLVQAGGSLRLSCAASGFTFAPNAMGWYRQAPGKERELVAAISSASSTYYADSVKGRFTISRDNAKNTVYLQMNSLKPEETAVYYCAAKSSTKQRKYYWGQGTQVTVSS | high polyreactivity |
| QVQLVESGGGLVQAGGSLRLSCAASGSIFFPYAMGWYRQAPGKERELVAASTRSGGRTYYADSVKGRFTISRDNAKNTVYLQMNSLKPEDTAVYYCAAGPWYKFYDWRPWFSYDYWGQGTQVTVSS | low polyreactivity |
| QVQLVETAAGLVKSGGSLPLSCAASGRIFKRYAMGWYRQAPGQARELVATINLSCGSTYYADSVKGRFTISRDNAKNTGYLQMNSRKPEDTAVYYCAYDAAGAPEGPYDYWGQGTQVTVSS | high polyreactivity |
| QVQLVDSGGGLVQAGGSLRLSCAASGRTFGKNVMGWYREAPGKERELVAAISLSGGSTYYADSVKGRFTISRDNAKNTVYLQMNSLKPEDTAVYYCAAAAYGKPWGLDYWGQGTQVTVSS | low polyreactivity |
| QVQLVESGGGLVQAGGSLRLSCAASGIIFSGYVMGWYRQAPGKERELVAAIRWNGGNTYYADSVKGRFTISRDNAKNTVYLQMNSLKPEDTAVYYCAGRVRRPYSSLDYWGQGSQVTVSS | high polyreactivity |

State the recorded polyreactivity (PSR sort gate) for this entry: QVQLVESGGGLVQAGGSLRLSCAASGSTYYENTMGWYRQAPGKEREMVAAISFRGGSTYYADSVKGRFTISRDNAKNTVYLQMNSLKPDDTAVYYCAKEYYTVRLYDYWGQGTQGTVSS
low polyreactivity

State the recorded polyreactivity (PSR sort gate) for this entry: QLQLVDSGGGLVQAGGSLRLSCAATGFTFYYYVMGWYRQAPGKETELVAAISSRGGSTYYADSVKGRFTISRDNAKNTVYLQMNSLKPEDTAVYYCAATYWPYRPGYYYWGQGTQVTVSS
high polyreactivity

State the recorded polyreactivity (PSR sort gate) for this entry: QFQLVDSGGGLVQAGGSLRLRSAASGRTFYPYVMAWYRQAPGKEREIVAAISYTGCSTYYADSVKGRFTISRDNAKNTVYLQMNSLKPEDTAVYYCNRAKYYSGGYRYHVDYWGQGTQVTVSS
high polyreactivity

State the recorded polyreactivity (PSR sort gate) for this entry: QVQLVESGGGLVQAGGSLRLSCAASGSTFQYNAMGWYRQAPGKEREFVAAISRTGTSTYYADSVKGRFTISRDNAKNTVYLLMNSLKPEDTAVYYCAAKSLRSGMGYWGQGTQVTVTS
high polyreactivity

Hello, the source for this data is the nanobody polyreactivity screen of Harvey et al. (2022), in case you need it.
